test system: MCF7; assay: Antiproliferative activity against human MCF7 cells after 24 hrs by trypan blue exclusion assay; assay type: functional, cell-based; conditions: MCF7, 24 h
QUANTITY_NAME: IC50 (µM)

Would you please look over these solved cases?
STRUCTURE_SMILES | TARGET_DESC | OUTPUT_UNIT | IC50
CCCCCCCCCCCCCCC[C@@H](O)[C@H](CO)NC(=O)CCCCC | MCF7 | µM | 38
CCCCCCCCCCCCC/C=C/[C@@H](O)[C@H](CO)NC(=O)CCCCC | MCF7 | µM | 12

a: CCCCCCCCCCCCCCC[C@@H](O)[C@H](CO)NC(=O)[C@@H](O)CCCC
b: CCCCCCCCCCCCCCC[C@@H](O)[C@H](CO)NC(=O)[C@H](O)CCCC
Between a and b , whose recorded IC50 is greater? Identify your selection by its label.
a
